Hey, just so you know, these numbers are from patent US11477982B2.

I'd appreciate it if you could supply Herbicidal action against STEME values for the items below.
# System: STEME: Stellaria media
# PROTOCOL SUMMARY: Post-emergence herbicidal effect
# Assay type: in vivo
# SETTINGS: dosage 320 g/ha
# unit: % | format: bare number

get_value(item= Cc1ccc2c(c1)C(Nc1ncc(C(C)(C)O)c(C)n1)CCC2 (racemic) [Example 1.52] , readout=Herbicidal action against STEME) returns 100

get_value(item= CC(C)(O)c1cnc(N[C@@H]2CCc3ccccc32)nc1 [Example 1.30] , readout=Herbicidal action against STEME) returns 100

get_value(item= CCc1ccc2c(c1)[C@H](Nc1ncc(C(C)(C)O)cn1)CC2 [Example 1.31] , readout=Herbicidal action against STEME) returns 100

get_value(item= Cc1ccc2c(c1)[C@H](Nc1ncc(C(C)O)c(C)n1)CCC2 (stereo partly shown) [Example 1.48] , readout=Herbicidal action against STEME) returns 90

get_value(item= Cc1ccc2c(c1)[C@H](Nc1ncc(C(C)O)c(C)n1)CC2 (stereo partly shown) [Example 1.13] , readout=Herbicidal action against STEME) returns 90

get_value(item= Cc1ccc2c(c1)[C@H](Nc1ncc(C(C)(C)O)c(C)n1)[C@@H](C)C2 [Example 1.6] , readout=Herbicidal action against STEME) returns 100

get_value(item= Cc1ccc2c(c1)[C@H](Nc1ncc(C(C)(O)C(F)(F)F)cn1)[C@@H](C)C2 (stereo partly shown) [Example 1.11] , readout=Herbicidal action against STEME) returns 100

get_value(item= Cc1ccc2c(c1)[C@H](Nc1ncc(C(C)(C)O)c(N)n1)[C@@H](C)C2 [drawing 12, reference compound] , readout=Herbicidal action against STEME) returns 0

get_value(item= C#CC(C)(O)c1cnc(N[C@H]2c3cc(C)ccc3C[C@@H]2C)nc1 (stereo partly shown) [Example 1.18] , readout=Herbicidal action against STEME) returns 100

get_value(item= C=C(C)COC(C)(C)c1cnc(N[C@H]2c3cc(C)ccc3C[C@@H]2C)nc1 [Example 1.63] , readout=Herbicidal action against STEME) returns 90

get_value(item= Cc1ccc2c(c1)[C@H](Nc1ncc(C(C)(O)C3CC3)cn1)[C@@H](C)C2 (stereo partly shown) [Example 1.20] , readout=Herbicidal action against STEME) returns 100

get_value(item= CC1Cc2ccccc2C1Nc1ncc(C(C)(C)O)cn1 (mixture of isomers) [Example 1.55] , readout=Herbicidal action against STEME) returns 90

get_value(item= Cc1ccc2c(c1)[C@H](Nc1ncc(C(C)(C)O)c(C)n1)CCO2 [Example 1.53] , readout=Herbicidal action against STEME) returns 90

get_value(item= Cc1ccc2c(c1)[C@H](Nc1ncc(C(C)(C)O)c(C)n1)CC2 [Example 1.12] , readout=Herbicidal action against STEME) returns 100

get_value(item= Cc1ccc2c(c1)[C@H](Nc1ncc(C(C)O)c(C)n1)CCO2 (stereo partly shown) [Example 1.49] , readout=Herbicidal action against STEME) returns 90

get_value(item= CCC(O)(CC)c1cnc(N[C@H]2c3cc(C)ccc3C[C@@H]2C)nc1 [Example 1.10] , readout=Herbicidal action against STEME) returns 100

get_value(item= CC(C)(O)c1cnc(N[C@@H]2CCCc3ccccc32)nc1 [Example 1.8] , readout=Herbicidal action against STEME) returns 100

get_value(item= Cc1nc(N[C@@H]2CCc3ccccc32)ncc1C(C)(C)O [Example 1.54] , readout=Herbicidal action against STEME) returns 90

get_value(item= Cc1ccc2c(c1)C(Nc1ncc(C(C)(C)O)cn1)CCC2 (racemic) [Example 1.43] , readout=Herbicidal action against STEME) returns 100

get_value(item= Cc1ccc2c(c1)[C@H](Nc1ncc(C(C)(C)O)c(N)n1)[C@@H](C)C2 [drawing 13, reference compound] , readout=Herbicidal action against STEME) returns 0

get_value(item= Cc1ccc2c(c1)[C@H](Nc1ncc(C(C)O)c(C)n1)[C@@H](C)C2 (stereo partly shown) [Example 1.7] , readout=Herbicidal action against STEME) returns 100

get_value(item= CC#CC(C)(O)c1cnc(N[C@H]2c3cc(C)ccc3C[C@@H]2C)nc1 (stereo partly shown) [Example 1.22] , readout=Herbicidal action against STEME) returns 90

get_value(item= CCc1ccc2c(c1)[C@H](Nc1ncc(C(C)(C)O)c(C)n1)CC2 [Example 1.57] , readout=Herbicidal action against STEME) returns 90

get_value(item= Cc1ccc2c(c1)[C@H](Nc1ncc(C(C)(C)O)c(C(F)F)n1)[C@@H](C)C2 [Example 1.17] , readout=Herbicidal action against STEME) returns 100

get_value(item= Cc1ccc2c(c1)[C@H](Nc1ncc(C(C)(C)O)cn1)CC2 [Example 1.5] , readout=Herbicidal action against STEME) returns 100

get_value(item= CCc1ccc2c(c1)[C@H](Nc1ncc(C(C)O)c(C)n1)CC2 (stereo partly shown) [Example 1.50] , readout=Herbicidal action against STEME) returns 100

get_value(item= Cc1ccc2c(c1)[C@H](Nc1ncc(C(C)O)cn1)[C@@H](C)C2 (stereo partly shown) [Example 1.2] , readout=Herbicidal action against STEME) returns 100

get_value(item= CCC(C)(O)c1cnc(N[C@H]2c3cc(C)ccc3C[C@@H]2C)nc1 (stereo partly shown) [Example 1.14] , readout=Herbicidal action against STEME) returns 100

get_value(item= C=CC(C)(O)c1cnc(N[C@H]2c3cc(C)ccc3C[C@@H]2C)nc1 (stereo partly shown) [Example 1.15] , readout=Herbicidal action against STEME) returns 100

get_value(item= CCC(O)(c1cnc(N[C@H]2c3cc(C)ccc3C[C@@H]2C)nc1)C(F)(F)F (stereo partly shown) [Example 1.58] , readout=Herbicidal action against STEME) returns 90

get_value(item= Cc1ccc2c(c1)[C@H](Nc1ncc(C(C)(O)C3(C)CC3)cn1)[C@@H](C)C2 (stereo partly shown) [Example 1.61] , readout=Herbicidal action against STEME) returns 90

get_value(item= Cc1ccc2c(c1)[C@H](Nc1ncc(C(C)(C)O)cn1)CCO2 [Example 1.38] , readout=Herbicidal action against STEME) returns 100

get_value(item= COC(C)(C)c1cnc(N[C@H]2c3cc(C)ccc3C[C@@H]2C)nc1 [Example 1.24] , readout=Herbicidal action against STEME) returns 100

get_value(item= Cc1ccc2c(c1)[C@H](Nc1ncc(C(C)(C)O)cn1)[C@@H](C)C2 [Example 1.4] , readout=Herbicidal action against STEME) returns 90
